- test protocol: A549 cell viability effects, profiling panel, calcein-AM fluorescence, 48 h, basal (AID 1162); further: test concentration not given here
- applied conditions: higher = more signal
// z-score lookup, one value per entry
experimental readout: z-score

[[record]]
molecule = "O=C1[C@H]2C=C(Br)[C@H](C[C@@H]2OCCCCO)[C@@]12CO2"
experimental_readout = "z-score"
value_measured = -0.0982

[[record]]
molecule = "COCCOC(=O)N1C(=O)[C@@]2(c3cc(C#CC4=CCCCC4)ccc31)[C@H](C(=O)Nc1nc3ccccc3s1)[C@H]1C(=O)O[C@H](c3ccccc3)[C@H](c3ccccc3)N1[C@@H]2c1ccc(OCCO)cc1"
experimental_readout = "z-score"
value_measured = -0.104

[[record]]
molecule = "CCOC(=O)[C@H]1CC=C2CC1C(=O)N1CCC[C@@H]1[C@@H]2O[Si](C)(C)C(C)(C)C (some centres not stated)"
experimental_readout = "z-score"
value_measured = -1.63

[[record]]
molecule = "C=C(COC)/C(=C/C[C@@H](OC(C)=O)c1ccc(OCCO)cc1)c1cc(C(=O)OC)ccc1OC"
experimental_readout = "z-score"
value_measured = -0.534

[[record]]
molecule = "CC(C)(C)OC(=O)CC[C@@]1(C(=O)NCCN2CCOCC2)N=C(c2ccc(OCCCO)cc2)O[C@@H]1c1ccccc1N=[N+]=[N-]"
experimental_readout = "z-score"
value_measured = 1.2

[[record]]
molecule = "O=C1OCCC/C=C\\[C@H]2OC34C=CCN(Cn5nnc6ccccc65)C(=O)[C@H]3N(CCO)C(=O)[C@@H]4C12 (some centres not stated)"
experimental_readout = "z-score"
value_measured = 0.499

[[record]]
molecule = "COC(=O)[C@@]1(Cc2ccc(F)cc2)[C@H]2c3cc(C(=O)N(C)C)n(Cc4nc5ccccc5[nH]4)c3C[C@H]2CN1C(=O)c1ccccc1"
experimental_readout = "z-score"
value_measured = -0.788

